Cited source for all entries: patent US20260317324A1

- System under test: BRAF D594G (Homo sapiens, UniProt P15056, D594G)
- Construct: Horizon Discovery (HCT-116 BRAF−/− cells); host or cells: HCT-116 BRAF−/− cells, clone 63, lentiviral transduction
- Sequence (P15056 whole entry D594G): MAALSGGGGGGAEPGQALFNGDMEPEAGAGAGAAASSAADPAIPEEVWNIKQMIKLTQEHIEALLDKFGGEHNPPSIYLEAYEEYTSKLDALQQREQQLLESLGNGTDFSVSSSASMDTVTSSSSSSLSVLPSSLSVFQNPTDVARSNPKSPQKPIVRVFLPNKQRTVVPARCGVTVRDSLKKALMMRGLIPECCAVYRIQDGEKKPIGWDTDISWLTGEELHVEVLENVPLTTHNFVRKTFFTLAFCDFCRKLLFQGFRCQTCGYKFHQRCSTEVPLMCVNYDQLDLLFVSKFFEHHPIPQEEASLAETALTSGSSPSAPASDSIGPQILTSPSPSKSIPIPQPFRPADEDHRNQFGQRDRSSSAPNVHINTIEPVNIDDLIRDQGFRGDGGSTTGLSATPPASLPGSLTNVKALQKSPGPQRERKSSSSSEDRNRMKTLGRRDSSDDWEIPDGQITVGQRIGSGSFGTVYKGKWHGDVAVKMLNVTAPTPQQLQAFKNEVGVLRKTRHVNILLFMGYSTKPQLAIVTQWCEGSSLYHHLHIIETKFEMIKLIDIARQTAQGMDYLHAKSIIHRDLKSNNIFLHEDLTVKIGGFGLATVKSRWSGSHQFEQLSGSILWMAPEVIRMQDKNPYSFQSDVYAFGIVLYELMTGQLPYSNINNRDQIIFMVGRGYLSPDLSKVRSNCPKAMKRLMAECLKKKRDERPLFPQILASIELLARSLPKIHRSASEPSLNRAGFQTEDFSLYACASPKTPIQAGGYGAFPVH
- Method: BRAF HiBiT degradation assay, C-terminal HiBiT-tagged BRAF D594G overexpressed in HCT-116 BRAF−/− cells (clone 63), Nano-Glo HiBiT Lytic assay
- Assay type: cell-based
- Condition label: BRAF D594G (Class 3), HCT-116 BRAF−/− cells; DC50 at 50% degradation
The following molecules are listed with their measured DC50 values.
Readout kind: DC50

Molecule	Result
O=C1CCC(c2ccc(N3CCC(CN4CCN(c5cc(F)c(-n6cc(-c7cc(Cl)cc(NS(=O)(=O)N8CCCC8)c7F)c(-c7ccncc7)n6)cc5F)CC4)CC3)nc2)C(=O)N1 (racemic)	< 10 nM
C[C@@H]1CN(c2ccc(-n3cc(-c4cc(Cl)cc(NS(=O)(=O)N5CCCC5)c4F)c(-c4ccncc4)n3)nc2)CCN1CC1CCN(c2ccc(N3CCC(=O)NC3=O)cc2)CC1	< 10 nM
O=C1CC[C@H](c2ccc(N3CCC(CN4CCN(c5ccc(-n6cc(-c7cc(Cl)cc(NS(=O)(=O)N8CC[C@@H](F)C8)c7F)c(-c7ccncc7)n6)cc5F)CC4)CC3)cc2)C(=O)N1	< 10 nM
O=C1CCC(c2ccc(N3CCC(CN4CCN(c5ccc(-n6cc(-c7cc(Cl)cc(NS(=O)(=O)N8CC[C@@H](F)C8)c7F)c(-c7ccncc7)n6)cc5F)CC4)CC3)nc2)C(=O)N1 (mixture of isomers)	< 10 nM
O=C1CCC(c2ccc(N3CCC(CN4CCN(c5ccc(-n6cc(-c7cc(F)cc(NS(=O)(=O)N8CC[C@@H](F)C8)c7F)c(-c7ccncc7)n6)nc5)CC4)CC3)nc2)C(=O)N1 (mixture of isomers)	< 10 nM
CCCS(=O)(=O)Nc1cc(Cl)cc(-c2cn(-c3ccc(N4CCN(CC5CCN(c6ccc([C@H]7CCC(=O)NC7=O)cc6)CC5)[C@H](C)C4)cc3)nc2-c2ccncc2)c1F	< 10 nM
O=C1CCC(c2ccc(N3CCC(F)(CN4CCN(c5ccc(-n6cc(-c7cc(Cl)cc(NS(=O)(=O)N8CCCC8)c7F)c(-c7ccncc7)n6)cc5)CC4)CC3)cc2)C(=O)N1 (racemic)	< 10 nM
O=C1CCC(c2ccc(N3CCC(CN4CCCN(c5ccc(-n6cc(-c7cc(Cl)cc(NS(=O)(=O)N8CCCC8)c7F)c(-c7ccncc7)n6)c(F)c5)CC4)CC3)nc2)C(=O)N1 (racemic)	> 500 nM
CCCS(=O)(=O)Nc1cccc(-c2nc(C3CCN(C(=O)C4CCN(C(=O)C5CCN(c6ccc(C7CCC(=O)NC7=O)cn6)CC5)CC4)CC3)sc2-c2ccnc(N)n2)c1F (racemic)	< 10 nM
O=C1CCN(c2ccc(N3CCC(CN4CCN(c5ccc(-n6cc(-c7cc(C(F)F)cc(NS(=O)(=O)N8CCCC8)c7F)c(-c7ccncc7)n6)c(F)c5)CC4)CC3)cc2)C(=O)N1	> 500 nM
CCN(C)S(=O)(=O)Nc1cc(Cl)cc(-c2cn(-c3ccc(N4CCN(CC5CCN(c6ccc(C7CCC(=O)NC7=O)cn6)CC5)CC4)cn3)nc2-c2ccncc2)c1F (racemic)	< 10 nM
CCC(C)S(=O)(=O)Nc1cc(Cl)cc(-c2cn(-c3ccc(N4CCN(CC5CCN(c6ccc([C@@H]7CCC(=O)NC7=O)cn6)CC5)CC4)cc3)nc2-c2ccncc2)c1F (mixture of isomers)	< 10 nM
O=C1CCC(c2ccc(N3CCC(CN4CCN(c5ccc(-n6cc(-c7cc(Cl)cc(NS(=O)(=O)N8CCCC8)c7F)c(-c7ccncc7)n6)cc5)CC4)CC3)nc2)C(=O)N1 (racemic)	< 10 nM
O=C1CCC(c2ccc(N3CCC(CN4CCN(c5cnc(-n6cc(-c7cc(Cl)cc(NS(=O)(=O)N8CCCC8)c7F)c(-c7ccncc7)n6)nc5)CC4)CC3)nc2)C(=O)N1 (racemic)	< 10 nM
CCCS(=O)(=O)Nc1cc(Cl)cc(-c2cn(-c3ccc(N4CCN(CC5CCN(c6ccc(N7CCC(=O)NC7=O)cc6)CC5)[C@H](C)C4)cc3)nc2-c2ccncc2)c1F	50 to 500 nM
O=C1CC[C@H](c2ccc(N3CCC(CN4CCN(c5cnc(-n6cc(-c7cc(Cl)cc(NS(=O)(=O)N8CCCC8)c7F)c(-c7ccncc7)n6)nc5)CC4)CC3)cc2)C(=O)N1	< 10 nM
CCCS(=O)(=O)Nc1cccc(-c2nc(C3CCC4(CC3)CCN(C(=O)C3CCN(c5cccc6c5n(C)c(=O)n6C5CCC(=O)NC5=O)CC3)CC4)sc2-c2ccnc(N)n2)c1F (racemic)	< 10 nM
CCN(C)S(=O)(=O)Nc1cc(Cl)cc(-c2cn(-c3ccc(N4CCN(CC5CCN(c6ccc(N7CCC(=O)NC7=O)cn6)CC5)CC4)cn3)nc2-c2ccncc2)c1F	< 10 nM
O=C1CC[C@H](c2ccc(N3CCC(CN4CCN(c5ccc(-n6cc(-c7cc(Cl)cc(NS(=O)(=O)N8CC[C@@H](F)C8)c7F)c(-c7ccncc7)n6)cc5)CC4)CC3)cc2)C(=O)N1	< 10 nM
